- assay remarks: Metabolic stability of the compound in rat liver microsomes assessed as parent compound remaining at 10 uM measured after 60 mins in presence of NADPH regenerating system by LC/MS analysis
- Assay type: ADME, Microsome
- study conditions: liver microsomes, read-out: Stability
measurement name: remaining at 1 h, 10 µM (%)
Numbers only, in %.

Briefly, remaining at 1 h, 10 µM measured for CC(O)CN1CCN(CC[S+]([O-])C(c2ccc(F)cc2)c2ccc(F)cc2)CC1 (stereo unspecified) : 72

----------
- assay remarks: Displacement of [3H]nisoxetine from NET in Sprague-Dawley rat prefrontal cortex incubated for 180 mins by microbeta microscintillation counting analysis
- Assay type: tissue-based
measurement name: Ki (µM)
Answers are plain numbers, in µM.

get_value(item= [O-][S+](CCN1CCCN(CC(O)Cc2ccccc2)CC1)C(c1ccc(F)cc1)c1ccc(F)cc1 (configuration not stated) , readout=Ki) returns 4.04
